I'd be grateful if you could share measured protein stability index for these entries.
B1: MLL5 (parent)
chain: DCMGIDRQHIPDTYLCERCQPRNL

# Variants of: B1
# method-summary: protein stability index of a GFP-peptide fusion (GPS, HEK-293T) (PSI 1-6); higher = more stable;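 note: lentivirally expressed fusions sorted by FACS into six bins by GFP to DsRed ratio, PSI derived from sequencing read proportions per bin multiplied by bin number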
# test-parameters: c terminus: a fixed tail appended
Give a plain numeric answer without units written out.

Tell me the measured protein stability index of DCMGIDRQHIPDTYLCERCQPRNC [L24C] , please.
3.24

Here is the next variant: DCMVIDRQHIPDTYLCERCQPRNL [G4V]
2.38

# repeat for DCMGIDRQHIPDDYLCERCQPRNL [T13D]
3.54

Would you kindly repeat that for DCMGIDRQHIPDTMLCERCQPRNL [Y14M] ?
3.5

Ok, now DCMGIDRQHIPRTYLCERCQPRNL [D12R]
2.86

// same read-out, input: DCMGIDRQHIPDTYLCERCVPRNL [Q20V]
2.79

Proceed to DCMCIDRQHIPDTYLCERCQPRNL [G4C]
3.73

Subsequent entry: DCMGIDRQHIPDTDLCERCQPRNL [Y14D]
3.83

Next variant: DCMGIDRQHIPDTYRCERCQPRNL [L15R]
3.61

// repeat for DCMGIDRQHIPDTYLCERCQPRNR [L24R] and report
2.62

Further, for DCKGIDRQHIPDTYLCERCQPRNL [M3K] ?
3.63

Another variant to check: DCMGIDRQHIPDTYLCERCQPRNV [L24V]
2.84

Also, DCSGIDRQHIPDTYLCERCQPRNL [M3S] please.
3.66

What do we get for DCMGIDRQHIYDTYLCERCQPRNL [P11Y] ?
2.44

Moving on to MCMGIDRQHIPDTYLCERCQPRNL [D1M]
1.91

# repeat for DCMGIDRQHIPDTYLCERCQPRNI [L24I]
2.36

Continue with DCMGIDRRHIPDTYLCERCQPRNL [Q8R]
2.5

Same thing, different variant: DCMGIDRQHIPDTYLDERCQPRNL [C16D]
3.91

And the next one, DCMGIDRQHIPDTYLCERHQPRNL [C19H] ?
3.7

Next up: DCMGIDRQHIPDTYFCERCQPRNL [L15F]
2

Likewise for DMMGIDRQHIPDTYLCERCQPRNL [C2M] ?
2.89

Subsequent entry: DCMGIDRQHIPDTYLCERRQPRNL [C19R]
4.24

Input DCMGIDRQHIHDTYLCERCQPRNL [P11H]
3.71

Likewise for DCMGIDRQHIPDTYLCELCQPRNL [R18L] ?
2.84

Try the variant DCMGIDRQHIPDTYLCERCQPRNQ [L24Q]
3.51

# iterate: DCMGIDRQHIPDTYLCERCQPRNS [L24S]
3.84

Note, next up: DCMGIDRQHIPDTYLCERCQPMNL [R22M]
1.86

Now the variant DCMGIDRQHIPTTYLCERCQPRNL [D12T]
2.81

Follow-up item: WCMGIDRQHIPDTYLCERCQPRNL [D1W]
1.4

Okay, and DCMGIDRQHIPDTYLCEPCQPRNL [R18P] ?
3.15

And what about the variant DCMGIDRQHIPDTKLCERCQPRNL [Y14K] ?
3.11

Proceed to DCMGIARQHIPDTYLCERCQPRNL [D6A]
3.27

Same question for DCMGIDRQHIPDTYCCERCQPRNL [L15C] please.
3.71

Now consider DCMGIDRQHIPDTYLCERCQPRHL [N23H] and answer again.
2.36

Now the same for DFMGIDRQHIPDTYLCERCQPRNL [C2F]
2.1

Another: DCMGIDRQHWPDTYLCERCQPRNL [I10W]
2.37

Another variant to look at: DCMGIDRQHIPVTYLCERCQPRNL [D12V]
1.69

Consider next the variant DCMGIPRQHIPDTYLCERCQPRNL [D6P] in the same way.
2.61

Proceed to DCMGIDRQHIPITYLCERCQPRNL [D12I]
2.51

# iterate: DCMMIDRQHIPDTYLCERCQPRNL [G4M]
2.88

Would you mind doing DCMGQDRQHIPDTYLCERCQPRNL [I5Q] as well?
3.37

Request: DCMGIDRQHIADTYLCERCQPRNL [P11A]
2.6

Then this variant: TCMGIDRQHIPDTYLCERCQPRNL [D1T]
2.43

Same question for DRMGIDRQHIPDTYLCERCQPRNL [C2R] please.
3.38

Param item: DCMGIGRQHIPDTYLCERCQPRNL [D6G]
2.78

Another variant to check: DCNGIDRQHIPDTYLCERCQPRNL [M3N]
2.88

Another: DCPGIDRQHIPDTYLCERCQPRNL [M3P]
3.32

Now the same for DCMGIDRQHIRDTYLCERCQPRNL [P11R]
3.15

Lookup DCMGIDRQHIPDTYLCEVCQPRNL [R18V]
2.19

Subsequent entry: DCMGIDRQHIPDTTLCERCQPRNL [Y14T]
3.73

// repeat for DCMGIDRQHIPDTYLKERCQPRNL [C16K] and report
3.41

Try this variant too: DCMGINRQHIPDTYLCERCQPRNL [D6N]
2.4

Next entry: DCMGWDRQHIPDTYLCERCQPRNL [I5W]
2.88

Record: DCMGIDRQHIPDTYLCSRCQPRNL [E17S]
2.64

DCMGIDRQLIPDTYLCERCQPRNL [H9L] ?
2.93

Try this variant too: DCMGIDRQHIPDTYLCERCLPRNL [Q20L]
1.99

Same question, DCMGIDRQHRPDTYLCERCQPRNL [I10R] this time
3

Param item: DCMGIDRQHIPDTYLCERCIPRNL [Q20I]
2.55

What about DCMTIDRQHIPDTYLCERCQPRNL [G4T] ?
3.23

Now consider DCMGIDRQHIPDTYLCERCQPDNL [R22D] and answer again.
3.42

Repeat for the following variant: DCMGIDRQHIPDTYLCARCQPRNL [E17A]
2.89

Again, but for DCMGIDRQHIKDTYLCERCQPRNL [P11K]
2.62

Then what about the variant DCMGIDRQHIPDTYLLERCQPRNL [C16L] ?
3.36

# repeat for DCMGIDRQHIPDTYPCERCQPRNL [L15P]
3.15

And what about the variant DCMGIDRQHIPDTRLCERCQPRNL [Y14R] ?
3.88

Could you do the same for DCMGIDRQHDPDTYLCERCQPRNL [I10D] , please?
3.56

For DCMGIDRQHIPDTYLCERCQPRPL [N23P] then?
3.1

Same question for DCMGIDRQHICDTYLCERCQPRNL [P11C] please.
4.15

And what about the variant DCMGIDRQHGPDTYLCERCQPRNL [I10G] ?
3.13

What would you report for DCMGISRQHIPDTYLCERCQPRNL [D6S] ?
2.99

Next entry: DQMGIDRQHIPDTYLCERCQPRNL [C2Q]
3.48

Repeat with DCMGIRRQHIPDTYLCERCQPRNL [D6R]
2.74

Note, next up: DCMGIDRQHIWDTYLCERCQPRNL [P11W]
1.7

Okay, and DCMGIDRQHIPDTYLCERWQPRNL [C19W] ?
2.63

Next variant: DCMLIDRQHIPDTYLCERCQPRNL [G4L]
2.63

Moving on to the next variant: DCMGIDRQHIIDTYLCERCQPRNL [P11I]
2.36

For DCMGIDRQHIPDTYLCERIQPRNL [C19I] then?
3.02

For QCMGIDRQHIPDTYLCERCQPRNL [D1Q] then?
2.41

Repeat with DCMGIDRQHIPDTYLCCRCQPRNL [E17C]
2.32

Also DCMGIDRQHMPDTYLCERCQPRNL [I10M] ?
3.9

Cool, now DCMGIDRQHIPDTYKCERCQPRNL [L15K]
4

Next variant: DCMGIDFQHIPDTYLCERCQPRNL [R7F]
2.78

Now try DCMGIDRQHIPDTYLCQRCQPRNL [E17Q] .
3.04

Reference for the values: the supplement of paper PMC10567573
